The entries below come with measured clearance values attached.
- assay: Clearance in rat
- Assay type: ADME
- experimentalConditions: in vivo
Hi! Could you send only the number? It should be in mL/min/kg, unit omitted.

querySmiles	unitsOfMeasure	clearance
CC(C)(C)CC[C@H](NC(=O)c1cc(Cl)cc(Cl)c1)C(=O)O	mL/min/kg	0.6
CC(C)(C)CC[C@H](NC(=O)c1cc(Cl)c[nH]1)C(=O)O	mL/min/kg	2.8

Read the next record carefully.
Exercise: Request the reported clearance associated with `CC(C)(C)CC[C@H](NC(=O)c1ccc(Oc2ccccc2)nc1)C(=O)O`
Key: 3.35

---

- testSystem: Sortilin/Progranulin (Homo sapiens, UniProt P28799+Q99523)
- Sequence (Q99523 whole entry): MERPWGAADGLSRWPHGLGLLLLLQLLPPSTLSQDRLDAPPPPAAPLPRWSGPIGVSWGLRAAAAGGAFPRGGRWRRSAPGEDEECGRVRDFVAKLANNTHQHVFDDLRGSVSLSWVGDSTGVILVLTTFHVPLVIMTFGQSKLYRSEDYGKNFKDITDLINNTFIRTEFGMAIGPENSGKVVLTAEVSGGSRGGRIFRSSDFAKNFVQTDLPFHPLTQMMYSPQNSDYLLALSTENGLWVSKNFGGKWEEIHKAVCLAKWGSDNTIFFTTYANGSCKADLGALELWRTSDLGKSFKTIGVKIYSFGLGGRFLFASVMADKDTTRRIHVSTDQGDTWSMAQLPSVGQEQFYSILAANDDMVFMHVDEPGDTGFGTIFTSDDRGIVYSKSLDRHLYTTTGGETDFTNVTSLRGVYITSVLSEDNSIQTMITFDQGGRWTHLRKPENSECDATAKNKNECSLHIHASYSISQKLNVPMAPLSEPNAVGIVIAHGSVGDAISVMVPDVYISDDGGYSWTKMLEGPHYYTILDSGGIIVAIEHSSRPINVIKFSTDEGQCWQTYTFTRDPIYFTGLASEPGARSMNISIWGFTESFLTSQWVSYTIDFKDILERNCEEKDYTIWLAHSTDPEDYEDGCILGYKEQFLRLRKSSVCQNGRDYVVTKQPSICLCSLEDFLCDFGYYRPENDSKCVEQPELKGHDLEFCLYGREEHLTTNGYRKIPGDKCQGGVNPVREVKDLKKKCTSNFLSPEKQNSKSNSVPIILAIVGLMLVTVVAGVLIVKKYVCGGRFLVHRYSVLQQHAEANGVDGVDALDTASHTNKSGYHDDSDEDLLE
- Sequence (P28799 whole entry): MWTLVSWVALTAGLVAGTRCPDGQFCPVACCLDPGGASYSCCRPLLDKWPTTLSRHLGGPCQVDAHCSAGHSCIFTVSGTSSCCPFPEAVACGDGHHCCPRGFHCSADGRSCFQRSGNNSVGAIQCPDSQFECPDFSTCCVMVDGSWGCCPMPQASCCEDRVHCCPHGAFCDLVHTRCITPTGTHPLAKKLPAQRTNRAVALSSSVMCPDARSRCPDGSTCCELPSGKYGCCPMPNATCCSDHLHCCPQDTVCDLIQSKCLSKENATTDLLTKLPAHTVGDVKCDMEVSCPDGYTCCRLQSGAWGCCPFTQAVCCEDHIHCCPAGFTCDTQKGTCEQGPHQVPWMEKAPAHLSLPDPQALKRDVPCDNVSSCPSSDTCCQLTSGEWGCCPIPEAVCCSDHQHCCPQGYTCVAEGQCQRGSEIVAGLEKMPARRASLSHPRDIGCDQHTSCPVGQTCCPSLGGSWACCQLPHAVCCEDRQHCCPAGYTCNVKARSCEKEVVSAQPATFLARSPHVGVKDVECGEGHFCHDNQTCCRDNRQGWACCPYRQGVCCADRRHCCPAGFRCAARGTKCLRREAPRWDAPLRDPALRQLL
- assay: Inhibition of SORT1 (unknown origin)-GRN (unknown origin) protein-protein interaction assessed as increase in progranulin level by cell-based ELISA
readoutLabel: IC50 (nM)
Hi! Could you send only the number? It should be in nM, unit omitted.

Below, each entry is followed by its recorded IC50 result.
querySmiles	testSystem	assayResult
CC(C)(C)CC[C@H](NC(=O)c1cc(Cl)c[nH]1)C(=O)O	Sortilin/Progranulin (Homo sapiens, UniProt P28799+Q99523)	290
CC(C)(C)CC[C@H](NC(=O)c1cc(Cl)cc(Cl)c1)C(=O)O	Sortilin/Progranulin (Homo sapiens, UniProt P28799+Q99523)	650

Read the next record carefully.
Exercise: Request the reported IC50 associated with `CC(C)(C)CC[C@H](NC(=O)c1ccc(Oc2ccccc2)nc1)C(=O)O`
Key: 120
